Source listed as the supplement of paper PMC10065799.

Biological target: EPHB2 (UniProt P29323)
Sequence (P29323 whole entry, looked up): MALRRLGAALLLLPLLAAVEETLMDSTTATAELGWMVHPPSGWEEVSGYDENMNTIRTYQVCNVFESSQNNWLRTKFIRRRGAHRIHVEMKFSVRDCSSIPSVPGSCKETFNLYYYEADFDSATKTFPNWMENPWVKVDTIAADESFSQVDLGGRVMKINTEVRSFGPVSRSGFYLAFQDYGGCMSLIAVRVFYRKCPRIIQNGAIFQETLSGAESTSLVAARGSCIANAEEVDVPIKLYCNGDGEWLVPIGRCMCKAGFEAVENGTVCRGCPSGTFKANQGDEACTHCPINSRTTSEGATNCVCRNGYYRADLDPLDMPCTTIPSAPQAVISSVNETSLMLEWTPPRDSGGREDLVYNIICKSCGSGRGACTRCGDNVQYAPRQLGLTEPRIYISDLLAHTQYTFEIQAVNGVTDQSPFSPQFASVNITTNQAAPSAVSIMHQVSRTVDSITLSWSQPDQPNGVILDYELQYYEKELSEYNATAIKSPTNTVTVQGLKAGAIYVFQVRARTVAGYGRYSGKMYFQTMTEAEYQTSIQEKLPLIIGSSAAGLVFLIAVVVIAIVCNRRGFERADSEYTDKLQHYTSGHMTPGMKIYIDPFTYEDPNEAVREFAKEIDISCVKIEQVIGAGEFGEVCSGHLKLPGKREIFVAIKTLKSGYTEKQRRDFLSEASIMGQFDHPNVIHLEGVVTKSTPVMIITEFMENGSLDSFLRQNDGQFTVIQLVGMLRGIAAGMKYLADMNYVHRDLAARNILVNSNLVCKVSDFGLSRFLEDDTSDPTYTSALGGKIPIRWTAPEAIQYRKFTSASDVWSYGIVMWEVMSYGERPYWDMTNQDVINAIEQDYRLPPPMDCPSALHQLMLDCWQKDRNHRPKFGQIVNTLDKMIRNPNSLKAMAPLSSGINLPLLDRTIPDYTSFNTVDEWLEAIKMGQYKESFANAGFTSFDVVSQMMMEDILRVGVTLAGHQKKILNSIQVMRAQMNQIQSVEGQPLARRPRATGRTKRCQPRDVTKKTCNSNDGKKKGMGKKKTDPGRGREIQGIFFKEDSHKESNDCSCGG
Test: phosphorylation enrichment, bacterial display (enrichment ratio); higher = better substrate or ligand; peptides without Tyr show the background;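 also: 11-residue human phosphosite peptides and single-mutation variants displayed on the E. coli surface, counted by deep sequencing, each peptide's frequency after selection divided by its frequency in the unselected input library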;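 also: frequency after pTyr selection over input frequency; kinase dosed for 20-30% of maximal phosphorylation in three min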
Each item that follows carries a reported phosphorylation enrichment.
In your answer, state the number alone without any accompanying words.

Solved cases (3 shown):
Residue String	phosphorylation enrichment
DLDATYRPMFS [JUP_Y701_M697L_YF]	0.557
LVRPPYSYLAL [FOXI1_Y126_S129L]	0.536
HSFQCYGQNEA [ENTPD3_Y262_R264Q]	0.452

Could you share which phosphorylation enrichment value was measured for VPLATYMQIFK [RPL21_Y30_R32Q_YF] ?
0.648

Could you share which phosphorylation enrichment value was measured for HILQLYRCREE [ALPK3_Y342_T338I] ?
0.705

Could you share which phosphorylation enrichment value was measured for SHGQDYLVGNK [GSTA1_Y147] ?
0.456
